Hello, the source for this data is ChEMBL document CHEMBL3045332, in case you need it.

# Test system: Mus musculus
# Experimental Details: Ulcerogenic activity in p-benzoquinone-challenged Swiss albino Mus musculus (mouse) at 100 mg/kg, po administered 60 min prior to p-benzoquinone-challenge by microscopic analysis
# Type: toxicity, organism-based
# Design: dose 100 mg/kg, route oral
# Conditions: in vivo, 1 h
Value Kind: Activity

Known results for compounds:
Compound	Activity
COc1ccc(N2CCN(CCn3nc(-c4ccccc4)ccc3=O)CC2)cc1	Non-toxic
O=c1ccc(-c2ccc(Cl)cc2)nn1CCN1CCN(c2ccccc2)CC1	Non-toxic
CC(=O)Oc1ccccc1C(=O)O [ASPIRIN]	Toxic
COc1ccc(-c2ccc(=O)n(CCN3CCN(c4ccccc4)CC3)n2)cc1	Non-toxic
COc1ccc(-c2ccc(=O)n(CCN3CCN(c4ccc(Cl)cc4)CC3)n2)cc1	Toxic

Challenge: Could you share which Activity value was measured for "COc1ccc(-c2ccc(=O)n(CCN3CCN(c4ccc(OC)cc4)CC3)n2)cc1" ?
Response given: Non-toxic

Challenge: Could you share which Activity value was measured for "COc1ccc(N2CCN(CCn3nc(-c4ccc(Cl)cc4)ccc3=O)CC2)cc1" ?
Response given: Non-toxic

Challenge: Could you share which Activity value was measured for "COc1ccc(-c2ccc(=O)n(CCN3CCN(c4ccc(F)cc4)CC3)n2)cc1" ?
Response given: Toxic

Challenge: Could you share which Activity value was measured for "O=c1ccc(-c2ccc(Cl)cc2)nn1CCN1CCN(c2ccc(F)cc2)CC1" ?
Response given: Non-toxic

Challenge: Could you share which Activity value was measured for "O=c1ccc(-c2ccc(Cl)cc2)nn1CCN1CCN(c2ccc(Cl)cc2)CC1" ?
Response given: Non-toxic

Challenge: Could you share which Activity value was measured for "O=c1ccc(-c2ccccc2)nn1CCN1CCN(c2ccc(Cl)cc2)CC1" ?
Response given: Non-toxic

Challenge: Could you share which Activity value was measured for "O=c1ccc(-c2ccccc2)nn1CCN1CCN(c2ccccc2)CC1" ?
Response given: Non-toxic

Challenge: Could you share which Activity value was measured for "O=c1ccc(-c2ccccc2)nn1CCN1CCN(c2ccc(F)cc2)CC1" ?
Response given: Non-toxic
